Cited source for all entries: patent US20230061083A1

Each record here notes measured fraction unbound at 5 h, 1 μM.
Method description: Plasma protein binding (PPB), RED plate dialysis, rat plasma
Assay type: in vitro ADME
Assay context: 37° C., read-out: PPB (% free state) R
Kindly provide the number alone.

These solved cases illustrate the format of a correct answer.
Output fraction unbound at 5 h, 1 μM of C=CC(=O)N1CCN(c2nc(=O)n(-c3c(C(C)C)ncnc3C(C)C)c3c2cc(F)c(-c2c(F)cccc2F)[n+]3[O-])[C@@H](C)C1 [SZ-014053]
0.616

Annotate the molecule C=CC(=O)N1CCN(c2nc(=O)n(-c3c(C(C)C)ncnc3C(C)C)c3c2cc(F)c(-c2ccccc2)[n+]3[O-])[C@@H](C)C1 [SZ-014129] with its measured fraction unbound at 5 h, 1 μM.
0.517

Turning now to a further record.
Read the entry C=CC(=O)N1CCN(c2nc(=O)n(-c3c(C(C)C)cccc3C(C)C)c3nc(-c4c(F)cccc4F)c(F)cc23)[C@@H](C)C1 [SZ-014139, reference compound] and write its reported fraction unbound at 5 h, 1 μM.
0.022
